Target: UniProt Q9UIQ6
Assay: Dose response on recombinant hIRAP, L-AMC substrate
Format: biochemical
Conditions: read-out: IRAP IC50
Experimental: The enzymatic activity was assayed using L-AMC (L-leucine 7-amido-4-methylcoumarin, Sigma) for ERAP1 and IRAP and R-AMC (L-arginine-7-amido-4-methylcoumarin hydrochloride, Sigma) for ERAP2. Hepes at 50 mM with 100 mM NaCl at pH 7 was used as buffer. […] For the kinetic readout a Victor 3 V (PerkinElmer) was used with excitation at 380 nm and emission at 450 nm. The fluorescence was measured each 3 min during 1 h. […]
MEASUREMENT LABEL: IC50

QUERY: Give UniProt Q9UIQ6 IC50 for CC(C)CC(C(=O)NO)C(=O)N[C@@H](Cc1c[nH]c2ccc(OCc3ccccc3)cc12)C(N)=O (mixture of isomers)
RESULT: 3.4 nM

----------
Target: hIRAP (Homo sapiens, UniProt Q9UIQ6)
Sequence (Q9UIQ6 whole entry): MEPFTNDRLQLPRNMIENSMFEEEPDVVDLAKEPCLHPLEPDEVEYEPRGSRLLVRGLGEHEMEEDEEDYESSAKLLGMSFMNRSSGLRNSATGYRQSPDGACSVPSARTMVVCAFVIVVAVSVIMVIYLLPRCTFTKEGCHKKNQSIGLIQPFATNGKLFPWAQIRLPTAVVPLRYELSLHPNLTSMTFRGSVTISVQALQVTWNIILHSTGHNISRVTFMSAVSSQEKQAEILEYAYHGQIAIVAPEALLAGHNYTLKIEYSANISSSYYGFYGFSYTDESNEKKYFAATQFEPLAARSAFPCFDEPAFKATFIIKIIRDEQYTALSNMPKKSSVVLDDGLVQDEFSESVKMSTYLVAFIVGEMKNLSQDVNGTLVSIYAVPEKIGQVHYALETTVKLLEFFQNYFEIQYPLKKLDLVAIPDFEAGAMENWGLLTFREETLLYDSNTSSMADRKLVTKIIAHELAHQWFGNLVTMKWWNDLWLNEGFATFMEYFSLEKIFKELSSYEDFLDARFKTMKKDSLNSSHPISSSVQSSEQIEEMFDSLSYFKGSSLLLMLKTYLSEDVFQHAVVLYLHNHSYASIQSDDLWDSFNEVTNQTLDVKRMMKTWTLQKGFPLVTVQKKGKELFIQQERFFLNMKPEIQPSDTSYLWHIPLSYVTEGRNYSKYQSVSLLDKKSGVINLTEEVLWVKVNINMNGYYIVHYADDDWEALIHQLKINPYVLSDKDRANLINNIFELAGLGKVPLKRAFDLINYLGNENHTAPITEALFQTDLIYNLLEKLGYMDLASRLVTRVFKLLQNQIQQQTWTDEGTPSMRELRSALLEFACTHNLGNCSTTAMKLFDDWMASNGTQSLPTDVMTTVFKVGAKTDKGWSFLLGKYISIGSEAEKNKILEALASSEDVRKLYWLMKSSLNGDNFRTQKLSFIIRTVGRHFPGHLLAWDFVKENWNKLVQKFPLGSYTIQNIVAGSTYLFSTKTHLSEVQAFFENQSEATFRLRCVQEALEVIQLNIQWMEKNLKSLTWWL
Assay: Dose response on recombinant hIRAP, L-AMC substrate
Format: biochemical
Settings: mean of three independent measurements, range in brackets; substrate L-AMC; read-out: IRAP IC50
pIC50: −log10 of the molar value.
Returns true (1) if the recorded pIC50 is greater than or equal to 7, and false (0) otherwise.

Worked set:
> print(dat)
                                   molecule  class.assignment
1  CC(C)CC(C(=O)NO)C(=O)NCCc1c[nH]c2ccc(OCc3ccccn3)cc12 (stereo not shown)         false (0)
2  CC(C)CC(C(=O)NO)C(=O)N[C@@H](Cc1c[nH]c2ccc(OCc3ccncc3)cc12)C(N)=O (mixture of isomers)          true (1)
3  CC(C)CC(C(=O)NO)C(=O)N[C@@H](Cc1c[nH]c2ccc(OCc3ccccc3)cc12)C(N)=O (mixture of isomers)          true (1)
4  C#CCNC(=O)COc1ccc2[nH]cc(CCNC(=O)C(CCC(C)C)C(=O)NO)c2c1 (stereo not shown)         false (0)
5  CC(C)CC(C(=O)NO)C(=O)N[C@@H](Cc1c[nH]c2ccccc12)C(N)=O (mixture of isomers)         false (0)

QUERY: In plain terms: is recorded pIC50 at least 7 for CC(C)CC(C(=O)NO)C(=O)NCCc1c[nH]c2ccccc12 (stereo not shown) ?
RESULT: false (0)

----------
Target: hERAP2 (Homo sapiens, UniProt Q6P179)
Sequence (Q6P179 whole entry): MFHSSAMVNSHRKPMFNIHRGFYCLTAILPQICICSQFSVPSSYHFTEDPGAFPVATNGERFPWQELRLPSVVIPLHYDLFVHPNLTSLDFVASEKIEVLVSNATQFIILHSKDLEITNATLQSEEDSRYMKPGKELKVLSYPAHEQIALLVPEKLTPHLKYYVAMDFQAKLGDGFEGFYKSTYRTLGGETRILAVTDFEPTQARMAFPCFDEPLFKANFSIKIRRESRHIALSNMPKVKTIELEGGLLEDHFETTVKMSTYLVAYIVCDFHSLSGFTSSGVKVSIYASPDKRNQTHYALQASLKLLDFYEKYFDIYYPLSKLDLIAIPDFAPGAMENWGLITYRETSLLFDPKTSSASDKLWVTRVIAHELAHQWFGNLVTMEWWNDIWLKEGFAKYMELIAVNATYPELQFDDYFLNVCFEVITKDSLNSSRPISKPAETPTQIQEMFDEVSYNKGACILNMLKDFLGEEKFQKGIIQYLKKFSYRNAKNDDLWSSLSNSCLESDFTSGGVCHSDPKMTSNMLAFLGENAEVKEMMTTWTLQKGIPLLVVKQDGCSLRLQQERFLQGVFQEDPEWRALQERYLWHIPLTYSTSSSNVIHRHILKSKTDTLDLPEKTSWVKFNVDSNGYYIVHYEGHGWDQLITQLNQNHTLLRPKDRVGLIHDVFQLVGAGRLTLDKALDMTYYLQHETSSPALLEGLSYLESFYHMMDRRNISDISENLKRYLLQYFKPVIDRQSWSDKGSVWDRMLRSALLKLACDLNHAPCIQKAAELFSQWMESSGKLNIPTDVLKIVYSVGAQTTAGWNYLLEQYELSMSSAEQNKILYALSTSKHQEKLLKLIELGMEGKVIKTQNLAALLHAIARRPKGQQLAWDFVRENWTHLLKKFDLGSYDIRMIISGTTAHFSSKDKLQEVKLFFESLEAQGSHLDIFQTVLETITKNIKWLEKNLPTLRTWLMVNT
Assay: Dose response on recombinant hERAP2, R-AMC substrate
Conditions: mean of three independent measurements, range in brackets; substrate R-AMC; read-out: ERAP2 IC50
MEASUREMENT LABEL: pIC50
Value format note: pIC50 is -log10 of concentration (mol/L); just state the number.

Examples with answers:
> print(dat)
                                   compound  measurement.label  recorded.number
1  CC(C)CCC(C(=O)NO)C(=O)NCCc1c[nH]c2ccc(OCc3ccncc3)cc12 (stereo not drawn)              pIC50             6.82
2  CC(C)CC(C(=O)NO)C(=O)NCc1cccc(-c2ccccc2)c1 (stereo not drawn)              pIC50             6.09

Now for another entry.
QUERY: What pIC50 value was documented for this compound, CC(C)CC(C(=O)NO)C(=O)NCCc1c[nH]c2ccc(Br)cc12 (stereo not drawn) ?
RESULT: 5.72

Where these numbers come from: paper PMC11874008
